assayed target: panel of 255 wild-type kinases (Homo sapiens, UniProt O14965)
Sequence (O14965 1-403): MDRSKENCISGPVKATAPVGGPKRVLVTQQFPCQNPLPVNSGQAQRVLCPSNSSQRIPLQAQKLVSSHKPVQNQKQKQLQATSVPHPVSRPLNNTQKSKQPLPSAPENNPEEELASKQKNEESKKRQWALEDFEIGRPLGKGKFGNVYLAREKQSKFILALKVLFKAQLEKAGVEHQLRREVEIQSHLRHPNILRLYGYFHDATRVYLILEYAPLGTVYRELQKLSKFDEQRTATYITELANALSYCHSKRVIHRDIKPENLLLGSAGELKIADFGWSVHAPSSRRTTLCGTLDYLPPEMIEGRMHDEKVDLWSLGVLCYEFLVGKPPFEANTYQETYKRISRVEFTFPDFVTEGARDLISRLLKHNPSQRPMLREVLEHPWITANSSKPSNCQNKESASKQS
assay overview: Kinase panel profiling at 1 µmol/L (MSA or IMAP), percentage inhibition
Assay type: biochemical
study conditions: AurA kinase assay; 1 µmol/L single concentration; read-out: %-inhibition AurA
Provide the reported inhibition at 1 µM of each item.
Respond with the figure and its unit, in that order.

Previously resolved entries follow.
CCN1C(=O)N(c2c(F)c(OC)cc(OC)c2F)Cc2cnc3[nH]c(CN4CCOCC4)cc3c21 [pemigatinib]: 11%
Cn1cnc2c(F)c(Nc3ccc(Br)cc3F)c(C(=O)NOCCO)cc21 [binimetinib]: -3%
C[C@H]1Oc2cc(cnc2N)-c2c(nn(C)c2C#N)CN(C)C(=O)c2ccc(F)cc21 [lorlatinib]: 21%
Cc1cc(Nc2ncnc3ccc(NC4=NC(C)(C)CO4)cc23)ccc1Oc1ccn2ncnc2c1 [tucatinib]: -1.53%
CO[C@]1(C(=O)N[C@@H](C)c2ccc(-n3cc(F)cn3)nc2)CC[C@H](c2nc(C)cc(Nc3cc(C)[nH]n3)n2)CC1 [pralsetinib]: 73%

# batch size: 4; output inhibition at 1 µM per entry
1. COc1cc2ncnc(Nc3ccc(F)c(Cl)c3)c2cc1NC(=O)/C=C/CN1CCCCC1 [dacomitinib]
2. CCn1c(=O)c(-c2cc(NC(=O)Nc3ccccc3)c(F)cc2Br)cc2cnc(NC)cc21 [ripretinib]
3. CCN1CCN(c2ccc(Nc3cc(N(C)C(=O)Nc4c(Cl)c(OC)cc(OC)c4Cl)ncn3)cc2)CC1 [infigratinib]
4. C[C@H](Nc1ncnc2nc[nH]c12)c1cc2cccc(Cl)c2c(=O)n1-c1ccccc1 [duvelisib]

1. -1.72%
2. -2%
3. -5.38%
4. -4.54%

Please give inhibition at 1 µM, item by item, for the list that follows.
1. CN1CCN(c2ccc(C(=O)Nc3n[nH]c4ccc(Cc5cc(F)cc(F)c5)cc34)c(NC3CCOCC3)c2)CC1 [entrectinib]
2. CCc1nc(C(N)=O)c(Nc2ccc(N3CCC(N4CCN(C)CC4)CC3)c(OC)c2)nc1NC1CCOCC1 [gilteritinib]

1: 81%; 2: 80%

###

Provide the reported IC50 of each item.
Test system: 134 cancer cell lines
assay overview: Cell viability assay (ATPlite, 72 hours), IC50 on cancer cell line panel
study conditions: Homo sapiens, MG-63, read-out: IC50 in cell proliferation assay, MG-63 cell line

Record excerpt, results attached:
O=C(Nc1cnn2ccc(N3CCC[C@@H]3c3cc(F)ccc3F)nc12)N1CC[C@H](O)C1: > 31.6 µM
CC(C)(C)c1nc(-c2cccc(NS(=O)(=O)c3c(F)cccc3F)c2F)c(-c2ccnc(N)n2)s1: > 10 µM

API: the following record is the query input.
Return IC50 for the following compound: `CCCS(=O)(=O)Nc1ccc(F)c(C(=O)c2c[nH]c3ncc(-c4ccc(Cl)cc4)cc23)c1F`
> 31.6 µM

Where these numbers come from: paper PMC9516332
